// LD50 lookup, one value per entry
assay: Experiment for acute toxicity (oral LD50); settings: mouse, in vivo, 5-week old male CD-1 (ICR) mice

COc1ccc2c(c1)Oc1ccc(C(=O)O)cc1N=C2C | 3000 to 3500 mg/kg

Now, please, on to the next compound.
Asked: Query: LD50; subject: CCC1=Nc2cc(C(=O)O)ccc2Oc2cc(OC)ccc21
Given back: 4200 to 5000 mg/kg

meta.source: patent US5017570A
